test system: human non-small cell lung cancer A549 cells; test: SRB assay, A549 cells; format: cell-based; settings: SRB growth inhibition, 48 hrs or 72 hrs
readout kind: pIC50
Answers are plain numbers, as −log10 of the molar value.

Kindly note the recorded pIC50 for COc1cc(Cn2c(-c3ccccc3)nc3cc(N4CCCC4)ccc32)cc(OC)c1OC [Compound 55] , which is 5.62
